# Test System: T1, EsCas13d, nuclease-dead (Eubacterium siraeum, UniProt B0MS50, R295A;H300A;R849A;H854A)
# T1 sequence: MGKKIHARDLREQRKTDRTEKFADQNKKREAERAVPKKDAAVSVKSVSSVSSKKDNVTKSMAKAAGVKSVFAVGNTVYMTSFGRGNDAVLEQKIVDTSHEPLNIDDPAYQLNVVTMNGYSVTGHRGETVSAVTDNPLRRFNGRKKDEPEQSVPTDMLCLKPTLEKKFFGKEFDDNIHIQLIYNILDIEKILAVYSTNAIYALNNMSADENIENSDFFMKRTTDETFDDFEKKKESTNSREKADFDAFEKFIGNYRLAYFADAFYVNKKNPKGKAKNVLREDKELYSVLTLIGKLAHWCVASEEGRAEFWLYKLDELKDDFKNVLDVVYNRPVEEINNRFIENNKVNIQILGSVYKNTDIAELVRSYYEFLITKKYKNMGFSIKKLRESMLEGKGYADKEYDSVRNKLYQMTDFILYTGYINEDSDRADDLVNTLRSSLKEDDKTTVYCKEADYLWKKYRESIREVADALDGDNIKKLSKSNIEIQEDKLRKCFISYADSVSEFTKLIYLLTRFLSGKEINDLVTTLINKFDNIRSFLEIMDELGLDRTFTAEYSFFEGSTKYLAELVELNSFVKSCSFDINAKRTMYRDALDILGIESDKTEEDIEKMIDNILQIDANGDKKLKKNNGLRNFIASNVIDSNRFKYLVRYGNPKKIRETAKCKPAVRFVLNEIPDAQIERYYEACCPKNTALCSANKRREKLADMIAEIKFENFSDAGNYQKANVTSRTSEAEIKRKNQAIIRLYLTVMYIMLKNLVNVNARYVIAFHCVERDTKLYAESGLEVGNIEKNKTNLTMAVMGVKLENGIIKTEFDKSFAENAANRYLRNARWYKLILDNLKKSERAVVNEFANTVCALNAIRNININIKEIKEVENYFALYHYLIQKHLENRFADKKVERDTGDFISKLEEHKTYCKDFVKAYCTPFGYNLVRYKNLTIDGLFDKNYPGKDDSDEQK
# Method Notes: crRNA (strand 1, pre-loaded); Mg2+; 40 mM Tris-HCl pH 7.5, 150 mM NaCl, 6 mM MgCl2, 1 mM DTT, 0.1% Tween-20, 0.2 mg/ml BSA; 25 C; 10 min per concentration, then washed
# Condition Parameters: tags: His6-TwinStrep-SUMO cleaved; N-terminal SNAP kept (SNAP-Surface 488); label: 3' end held by stalled T7 RNA polymerase
Observed Property: pKd
# pKd = -log10(concentration in molar units)

stdin: Look at this binder and give its reported pKd. target 2 MT 5'PFS GGA 3'PFS AGG (mixed) RNA 1: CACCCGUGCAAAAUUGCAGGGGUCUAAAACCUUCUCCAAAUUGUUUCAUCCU RNA 2: GGGAAUGGAUCCACAUCUACGAAUUCGGAAGGAUGAAACAAUUUGGAGAAGAGGAGAUCGGAAGAGCACACGU
stdout: 8.08

stdin: Value lookup for pKd; key = target 2 MT 5'PFS CGA 3'PFS CAA (mixed) RNA 1: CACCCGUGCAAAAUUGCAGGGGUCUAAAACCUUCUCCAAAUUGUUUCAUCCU RNA 2: GGGAAUGGAUCCACAUCUACGAAUUCCGAAGGAUGAAACAAUUUGGAGAAGCAAAGAUCGGAAGAGCACACGU
stdout: 8.19

stdin: Which measured pKd value corresponds to target 1 MT 5'PFS GAC 3'PFS UAU (mixed) RNA 1: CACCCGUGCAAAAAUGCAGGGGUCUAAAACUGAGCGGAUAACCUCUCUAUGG RNA 2: GGGAAUGGAUCCACAUCUACGAAUUCGACCCAUAGAGAGGUUAUCCGCUCAUAUAGAUCGGAAGAGCACACGU ?
stdout: 7.72

stdin: Returns the measured pKd for the input binder. Input: target 1 A20C,C21G (mixed) RNA 1: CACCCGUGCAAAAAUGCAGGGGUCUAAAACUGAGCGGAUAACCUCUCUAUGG RNA 2: GGGAAUGGAUCCACAUCUACGAAUUCGUACGCUAGAGAGGUUAUCCGCUCACCGAGAUCGGAAGAGCACACGU
stdout: 7.24

stdin: # lookup: pKd of target 3 U7A,U8G (mixed) RNA 1: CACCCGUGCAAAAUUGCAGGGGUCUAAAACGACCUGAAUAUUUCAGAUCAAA RNA 2: GGGAAUGGAUCCACAUCUACGAAUUCGUUUUUGAUCUGAAAUAGACAGGUCUGCAGAUCGGAAGAGCACACGU
stdout: 7.08

stdin: # get_value(readout='pKd', item= target 1 G15A,C22A (mixed) RNA 1: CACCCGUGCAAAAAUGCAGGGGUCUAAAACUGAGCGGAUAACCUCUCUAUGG RNA 2: GGGAAUGGAUCCACAUCUACGAAUUCGUAACAUAGAAAGGUUAUCCGCUCACCGAGAUCGGAAGAGCACACGU )
stdout: 7.69

stdin: Item target 1 insG 3' of 22,insG 3' of 8 (mixed) RNA 1: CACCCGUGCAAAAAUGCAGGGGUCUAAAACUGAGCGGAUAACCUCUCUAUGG RNA 2: GGGAAUGGAUCCACAUCUACGAAUUCGUACGCAUAGAGAGGUUAUGCCGCUCACCGAGAUCGGAAGAGCACACGU has what recorded pKd?
stdout: 7.17

stdin: Which pKd is listed for target 2 MT 5'PFS ACU 3'PFS AGC (mixed) RNA 1: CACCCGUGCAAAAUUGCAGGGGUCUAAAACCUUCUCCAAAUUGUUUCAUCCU RNA 2: GGGAAUGGAUCCACAUCUACGAAUUCACUAGGAUGAAACAAUUUGGAGAAGAGCAGAUCGGAAGAGCACACGU ?
stdout: 8.50

Where these numbers come from: paper PMC10786891
